# tested.system: GCAP-2 (Bos taurus, UniProt P51177)
# Construct: made in house; host or cells: E. coli BL21 (DE3), vector pET-11a, co-expressed with yeast N-myristoyltransferase I (pBB131)
# Sequence (P51177 1-204): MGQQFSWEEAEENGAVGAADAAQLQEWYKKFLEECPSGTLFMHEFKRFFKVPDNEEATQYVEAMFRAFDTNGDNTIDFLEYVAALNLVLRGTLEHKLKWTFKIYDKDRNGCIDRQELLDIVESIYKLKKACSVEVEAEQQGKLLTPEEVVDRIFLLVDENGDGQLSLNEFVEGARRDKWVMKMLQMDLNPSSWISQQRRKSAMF
# run.description: Surface plasmon resonance (SPR), GCAP-2/ROS-GC peptide interaction
# Assay type: binding, bovine
No end group written: not given here.
readout: pKd
In simple prose, pKd is minus the logarithm base ten of a concentration in moles per litre.

Q: Quick check: pKd of YRIHVNRSTVQILSALN [Peptide 1] ?
A: 5.63
